# ASSAY INFO: Plasma pharmacokinetics in patients
# Format: in vivo, human
# REPORTED CONDITIONS: human, plasma, oral, across all dose levels and both sampling schemes; read-out: tmax, median values

{"columns": ["CHEMICAL STRING", "Tmax"],
 "data": [
  ["Cn1cnc2c(F)c(Nc3ccc(Br)cc3F)c(C(=O)NOCCO)cc21", "0.5 to 4 h"]
]}

---

# ASSAY INFO: Plasma pharmacokinetics in patients
# Assay type: in vivo, human
# REPORTED CONDITIONS: human, plasma, oral, 80 mg BID, cycle 1 day 1; dose-escalation 80 mg BID (n=4); geometric mean (% CV)

{"columns": ["CHEMICAL STRING", "Cmax"],
 "data": [
  ["Cn1cnc2c(F)c(Nc3ccc(Br)cc3F)c(C(=O)NOCCO)cc21", "687 ng/mL"]
]}

---

# ASSAY INFO: Plasma pharmacokinetics in patients
# Assay type: in vivo, human
# REPORTED CONDITIONS: human, plasma, oral, 30 mg, cycle 1 day 15; dose-escalation 30 mg BID (n=4); geometric mean (% CV)

{"columns": ["CHEMICAL STRING", "Cmax"],
 "data": [
  ["Cn1cnc2c(F)c(Nc3ccc(Br)cc3F)c(C(=O)NOCCO)cc21", "417 ng/mL"]
]}

---

# ASSAY INFO: Plasma pharmacokinetics in patients
# Assay type: in vivo, human
# REPORTED CONDITIONS: human, plasma, oral, 45 mg, cycle 1 day 15; dose-escalation 45 mg BID (n=4); geometric mean (% CV); read-out: AUC0-8

{"columns": ["CHEMICAL STRING", "UNITS LABEL", "AUC(0-t)"],
 "data": [
  ["Cn1cnc2c(F)c(Nc3ccc(Br)cc3F)c(C(=O)NOCCO)cc21", "ng·h/mL", 1490]
]}

---

# ASSAY INFO: Plasma pharmacokinetics in patients
# Type: in vivo, human
# REPORTED CONDITIONS: human, plasma, oral, 45 mg BID, cycle 1 day 1; dose-escalation 45 mg BID (n=4); geometric mean (% CV); intensive sampling; read-out: AUC0–8

{"columns": ["COMPOUND", "AUC(0-t) (ng·h/mL)"],
 "data": [
  ["Cn1cnc2c(F)c(Nc3ccc(Br)cc3F)c(C(=O)NOCCO)cc21 [binimetinib]", 964]
]}

---

# ASSAY INFO: Plasma pharmacokinetics in patients
# Assay type: in vivo, human
# REPORTED CONDITIONS: human, plasma, oral, 30 mg BID, cycle 1 day 15; dose-escalation 30 mg BID (n=4); median (minimum–maximum); read-out: tmax
READOUT LABEL: Tmax (h)

{"columns": ["MOLECULE", "READOUT LABEL", "UNITS LABEL", "NUMERIC VALUE"],
 "data": [
  ["Cn1cnc2c(F)c(Nc3ccc(Br)cc3F)c(C(=O)NOCCO)cc21 [binimetinib]", "Tmax", "h", 1.5]
]}

---

# ASSAY INFO: Plasma pharmacokinetics in patients
# Format: in vivo, human
# REPORTED CONDITIONS: human, plasma, oral, 60 mg BID, cycle 1 day 1; dose-escalation 60 mg BID (n=7); median (minimum–maximum); read-out: tmax
READOUT LABEL: Tmax (h)

{"columns": ["CHEMICAL STRING", "READOUT LABEL", "NUMERIC VALUE"],
 "data": [
  ["Cn1cnc2c(F)c(Nc3ccc(Br)cc3F)c(C(=O)NOCCO)cc21", "Tmax", 1]
]}
